# credit: patent US9242970B2

The entries below are paired with their reported IC50.
testSystem: human orexin-1 receptor (Homo sapiens (Human))
Sequence (O43613 whole entry): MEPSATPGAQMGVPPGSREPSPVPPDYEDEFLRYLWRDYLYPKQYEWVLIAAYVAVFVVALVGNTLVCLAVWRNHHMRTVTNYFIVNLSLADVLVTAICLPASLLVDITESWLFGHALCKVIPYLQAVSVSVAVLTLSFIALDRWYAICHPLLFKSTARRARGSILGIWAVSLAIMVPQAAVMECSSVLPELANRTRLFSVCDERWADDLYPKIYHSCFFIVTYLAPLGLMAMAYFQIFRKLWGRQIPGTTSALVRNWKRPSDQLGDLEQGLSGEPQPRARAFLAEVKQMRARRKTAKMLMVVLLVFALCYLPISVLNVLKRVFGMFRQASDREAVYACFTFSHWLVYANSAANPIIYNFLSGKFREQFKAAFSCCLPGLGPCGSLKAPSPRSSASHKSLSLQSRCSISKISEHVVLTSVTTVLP
assayExplanation: In vitro assay: intracellular calcium measurements (FLIPR), antagonistic activity
Assay type: cell-based
experimentalSetup: CHO cells, 3 nM orexin-A, compound incubation 120 min; marked values are geometric means of n = 2-6; read-out: IC50 OX1
readoutType: IC50 (µM)

1) COc1ccc2ccccc2c1C1CCCC(=O)N1Cc1cccc(-c2ncccn2)c1 (stereo not drawn) :: 0.021
2) COc1cccc(F)c1C1CC(C)C(=O)N1Cc1cccc(-c2ncc(C)s2)c1 (stereo not drawn) :: 0.121
3) COc1ccc(F)c(OC)c1[C@@H]1C[C@@H](Cl)C(=O)N1Cc1ccc(OC(F)(F)F)cc1 (racemic) :: 0.739
4) COc1cccc(OC)c1C1CCC(=O)N1Cc1cccc(Oc2ccccc2)c1 (stereo not drawn) :: 0.211
5) COc1cccc(OC)c1C1CCC(=O)N1Cc1cccc(-c2ccccc2)n1 (stereo not drawn) :: 0.183
6) COc1ccc(CN2C(=O)C(C)CC2c2c(OC)cccc2OC)cc1OC(F)(F)F (stereo not drawn) :: 0.965
7) COc1cccc(OC)c1C1CCCC(=O)N1Cc1ccc2ccccc2n1 (stereo not drawn) [Example 4] :: 0.174
8) O=C1[C@@H](Cl)C[C@@H](c2cccc3c2OCCO3)N1Cc1ccc(OC(F)(F)F)cc1 (racemic) :: 0.563
9) COc1cccc(OC)c1C1CC(C)C(=O)N1Cc1cnn(-c2ccccc2)c1 (stereo not drawn) :: 0.223
10) COc1ccc2c(c1C1CCCC(=O)N1Cc1csc(-c3ccccc3)n1)OCO2 (stereo not drawn) :: 0.108
11) COc1ccc2ncoc2c1C1CCCC(=O)N1Cc1cccc(-c2csc(C)n2)c1 (stereo not drawn) :: 0.057
12) COc1cccc(OC)c1C1CCCC(=O)N1Cc1ccnc(-c2ccccn2)c1 (stereo not drawn) :: 0.039
13) COc1cccc(OC)c1C1CCCC(=O)N1Cc1cnn(-c2ccccc2)c1 (stereo not drawn) :: 0.167
14) CCOc1cccc(F)c1[C@@H]1C[C@H](Cl)C(=O)N1Cc1ccc(OC(F)(F)F)c(F)c1 (racemic) :: 0.66
15) CCOc1cc(F)cc(F)c1[C@@H]1C[C@H](Cl)C(=O)N1Cc1ccc(OC(F)(F)F)cc1 (racemic) :: 0.575
16) COc1cccc(OC)c1C1CCCC(=O)N1Cc1cccc(-c2ccc(F)cc2)n1 (stereo not drawn) :: 0.119
17) CC(C)Oc1cccc(F)c1[C@@H]1C[C@H](F)C(=O)N1Cc1ccc(OC(F)(F)F)cc1 (racemic) :: 0.678
18) COc1cncc(OC)c1C1CCCCC(=O)N1Cc1cccc(-c2csc(C)n2)c1 (stereo not drawn) :: 0.023
19) COc1cccc(F)c1C1CC(C)C(=O)N1Cc1ccnc(-c2ncc(C)s2)c1 (stereo not drawn) :: 0.352
20) COc1cccc(OC)c1C1CC(C)C(=O)N1Cc1ccc2sc(C)nc2c1 (stereo not drawn) :: 0.032
21) CCOc1cccc(F)c1C1CC(C)C(=O)N1Cc1ccnc(-n2cccn2)c1 (stereo not drawn) :: 0.418
22) COc1cccc(OC)c1C1CCCC(=O)N1Cc1cccc(-c2ccccc2)c1 (stereo not drawn) :: 0.017
23) COc1cncc(OC)c1C1CCCC(=O)N1Cc1cccc(-n2nccn2)c1 (stereo not drawn) :: 0.163
24) COc1cccc(OC)c1C1CC(C)C(=O)N1Cc1cccc(N2CCCC2)c1 (stereo not drawn) :: 0.013
25) COc1cccc(OC)c1C1CC(C)C(=O)N1Cc1cccc(-n2nccn2)c1 (stereo not drawn) :: 0.006
26) COc1cccc(OC)c1C1CCCC(=O)N1Cc1cccc(-c2ccccc2)n1 (stereo not drawn) :: 0.034
27) COc1cccc(F)c1[C@@H]1C[C@@H](Cl)C(=O)N1Cc1ccc(OC(F)(F)F)cc1 (racemic) :: 0.968
28) COc1ccnc(OC)c1C1CC(C)C(=O)N1Cc1cccc(-c2ccccc2)c1 (stereo not drawn) :: 0.056
29) COc1cccc(Cl)c1[C@@H]1C[C@H](Cl)C(=O)N1Cc1ccc(OC(F)(F)F)cc1 (racemic) :: 0.74
30) COc1cccc(OC)c1C1CCCCC(=O)N1Cc1cccc(Oc2ccccc2)c1 (stereo not drawn) :: 0.137
31) CCOc1ccc(F)c(F)c1[C@@H]1C[C@H](F)C(=O)N1Cc1ccc(OC(F)(F)F)cc1 (racemic) :: 0.981
32) COc1cccc(C)c1[C@@H]1C[C@@H](O)C(=O)N1Cc1ccc(OC(F)(F)F)cc1 (racemic) :: 2.22
33) COc1ccccc1[C@@H]1C[C@H](Cl)C(=O)N1Cc1ccc(OC(F)(F)F)cc1 (racemic) :: 1.63
